system: Huh7 miR-21 level, qRT-PCR, 48 h; assay: miR-21 fold change in Huh7 hepatoma cells – cell-based, qRT-PCR, dry powder, selectivity assay for miR-122 activator project, dose response (AID 720727)
Calls of active or inactive are those of the source.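 Rule for the calls: active = compound whose rising-signal curve crosses activity 40 at or below its top valid dose; inconclusive = flat curve holding activity 30 to 70, or poor fit; inactive = the rest.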
Outcomes: y = active, n = inactive

- O=C(CN=C1NS(=O)(=O)c2ccccc21)Nc1ccccc1N1CCCCCC1: y
- CNC[C@@H]1Oc2cc(C#CC3CCCCC3)ccc2S(=O)(=O)N([C@@H](C)CO)C[C@@H]1C: y
- C[C@H]1CN([C@@H](C)CO)C(=O)c2cc(-c3ccc(C#N)cc3)cnc2O[C@H]1CN(C)C(=O)c1ccccc1: y
- Cc1cc(C(C)(C)C)cc(S(=O)(=O)NCCc2ccncc2)c1C: y
- CCn1cc(C(=O)O)c(=O)c2cc(F)c(N3CCNCC3)nc21: n
- CN1C(=O)c2cc(NC(=O)c3cccc(F)c3)ccc2OC[C@H]2O[C@@H](CC(=O)O)CC[C@@H]21: y
- Cc1cccc(NC(=O)Nc2ccc3c(c2)C(=O)N(C)[C@@H]2CC[C@H](CC(=O)NCc4ccccc4Cl)O[C@H]2CO3)c1: y
- COCC(=O)N(C)C[C@H]1Oc2cc(C#Cc3cccnc3)ccc2S(=O)(=O)N([C@H](C)CO)C[C@H]1C: y
- CN1C(=O)c2cc(NC(=O)c3cccc(F)c3)ccc2OC[C@H]2O[C@@H](CC(=O)O)CC[C@H]21: y
- COc1ccc(S(=O)(=O)N(C)C[C@@H]2Oc3ncc(/C=C/c4ccccc4)cc3C(=O)N([C@@H](C)CO)C[C@@H]2C)cc1: y
- COCC(=O)N(C)C[C@H]1Oc2cc(-c3ccccc3F)ccc2S(=O)(=O)N([C@H](C)CO)C[C@H]1C: y
- CN(CC(=O)Nc1cccc(Cl)c1)S(=O)(=O)c1ccc2c(c1)n(C)c(=O)c(=O)n2C: y
- CCOC(=O)N1CCC(NC(=O)c2ccc3c(c2)sc2nc(-c4ccccc4)cn23)CC1: y
- COCC(=O)N(C)C[C@@H]1Oc2ncc(-c3ccc(C#N)cc3)cc2C(=O)N([C@@H](C)CO)C[C@@H]1C: y
- CN(C)CCCOc1nn(Cc2ccccc2)c2ccccc12: y
